tested on: CEM cells HIV-1 protection, formazan growth assay; test: NCI AIDS Antiviral Assay;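 active means compounds giving half or more protection of infected cells from virus-caused growth loss, again on retest; inactive means the rest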
Respond only with the outcome that fits, drawn from 1 (yes) for active, 0 (no) for inactive

For orientation, consider the following solved cases.
[
  {
    "compound": "CC1(C)CCCOc2ccc(C(=O)O)cc21",
    "class_label": "0 (no)"
  },
  {
    "compound": "N=C(c1ccc(-c2cn3cc(C(=N)N4CCCC4)ccc3n2)cc1)N1CCCC1",
    "class_label": "1 (yes)"
  },
  {
    "compound": "NC(=O)/C=C/c1c[nH]c2nccnc12",
    "class_label": "0 (no)"
  }
]

--- query ---
Tell me the assay call for O=[N+]([O-])c1nccn1CC(O)CO (centres undefined) please.
0 (no)
